Measured values drawn from PubChem BioAssay (NCI) for this set.

Test system: T-47D breast
Experiment: NCI-60 one-dose screen, 48 h (100 = growth as untreated, 0 = no growth, -100 = all killed)
Settings: 10 µM unless noted
Compounds without any hit were thinned out: in the full panel of roughly 83,000, 20% have a hit.
READOUT: growth (%)
Note: unit % is implicit; provide only the numeric part.

INSERT INTO results (compound, readout, recorded_result) VALUES
  ('CC(=O)OC(c1ccccc1)C1CCOC1=O (centres undefined)', 'growth', 106),
  ('N=C(N)c1ccc(-c2ccc(-c3ccccc3)s2)cc1', 'growth', 44.5),
  ('CN1CCN(Cc2ccc(NC(=O)c3cncc(C#Cc4cnc(N)c5ccc(F)cc45)c3)cc2C(F)(F)F)CC1', 'growth', 43.5),
  ('C=C1C(=O)O[C@H]2[C@H]1CC/C(COC(=O)/C=C\C(=O)NCc1ccc(Cn3c(=O)sn(CCCl)c3=O)cc1)=C\CC[C@@]1(C)O[C@@H]21', 'growth', 84.7),
  ('CCN1C(=O)N(CC)C2C1NN=c1s/c(=C\c3ccc(C(F)(F)F)cc3)c(=O)n12 (centres undefined)', 'growth', 64.7);

Would you mind telling me what growth value was observed for `C=C1C(=O)O[C@H]2[C@H]1CC/C(COC(=O)c1ccc(C(=O)O)s1)=C\CC[C@@]1(C)O[C@@H]21` ?
43

Would you mind telling me what growth value was observed for `C=CC(=O)Nc1ccc(Nc2nccc(-c3ccc(N4CCCC4)c(C#N)c3)n2)cc1` ?
41.5

Would you mind telling me what growth value was observed for `Cc1cccc[n+]1C1c2ccccc2-c2ccccc21` ?
60.8

Would you mind telling me what growth value was observed for CCN1C(=O)N(CC)C2C1NC(=S)N2/N=C/c1ccc(C(F)(F)F)cc1 (centres undefined) ?
74.7

Would you mind telling me what growth value was observed for `CCCC(CC)(C(=O)Nc1ccc2nc(C)cc(N)c2c1)C(=O)Nc1ccc2nc(C)cc(N)c2c1` ?
106

Would you mind telling me what growth value was observed for `Cc1ccc(-c2nc3nc(-c4ccccc4)nc(N4CCCN(S(C)(=O)=O)CC4)c3o2)cc1` ?
92.1

Would you mind telling me what growth value was observed for `COc1cccc(-c2cc(-c3cccc(Cl)c3)c(C#N)c(=O)[nH]2)c1` ?
80.1

Would you mind telling me what growth value was observed for `CC1=C2[C@@H](CC1)[C@]1(C)O[C@@](c3ccccc3)(C[C@H]1OC(=O)CO)[C@H]2OC(=O)/C=C/c1ccccc1` ?
65.2

----------
Test system: K-562 leukemia
Assay: NCI-60 one-dose screen, 48 h
Details: 10 µM unless noted
About 83,000 compounds went through this panel and 20% of them were active in at least one assay; those are over-represented in the sample as a whole. Activity calls are given as the source filed them. The calls were made as follows: active = growth percent below 10; inactive = the rest.
Assign a class; possible classes are Y (active), N (inactive)

These solved cases illustrate the format of a correct answer.
INSERT INTO assay_data (molecule, label_value) VALUES
  ('O=C(Cn1nnc2ccccc21)N/N=C/c1c[nH]c2ccccc12', 'N'),
  ('Cc1ccc(-c2nc(/C=C3/C(=O)Nc4ccc(F)cc43)c3ccccn23)cc1', 'N');

What classification did `Cn1ccc(=O)nc1` end up with in this test?
N

What classification did `COc1ccc(C(=O)N2c3ccccc3Sc3ccccc32)c(C(F)(F)F)c1` end up with in this test?
Y

What classification did `O=C(Cc1ccccc1)Nc1cccc(N=Cc2ccccc2O)c1` end up with in this test?
N

What classification did `O=C(Nc1cnc(Nc2ccc(N3CCOCC3)nc2)nc1Oc1ccc(C(F)(F)F)cc1)c1ccncc1` end up with in this test?
N

What classification did `O=C(/C=C/c1ccc(Oc2ccc(Br)cc2)cc1)c1ccc(Br)cc1` end up with in this test?
N
